Each recorded value in this set is attributed to patent US20260242735A1.

Tgt: human CD33 G295A (human, UniProt P20138 18-364)
Sequence (P20138 18-364 G295A limits assumed): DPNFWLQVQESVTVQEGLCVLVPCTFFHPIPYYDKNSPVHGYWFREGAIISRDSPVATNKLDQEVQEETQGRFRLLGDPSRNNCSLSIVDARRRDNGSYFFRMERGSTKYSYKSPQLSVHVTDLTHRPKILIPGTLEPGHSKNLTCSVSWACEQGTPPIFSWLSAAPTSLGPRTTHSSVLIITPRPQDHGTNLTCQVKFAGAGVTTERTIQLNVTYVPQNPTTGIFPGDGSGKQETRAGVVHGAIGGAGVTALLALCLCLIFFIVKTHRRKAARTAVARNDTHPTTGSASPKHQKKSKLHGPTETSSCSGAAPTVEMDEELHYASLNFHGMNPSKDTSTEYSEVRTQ
Protocol Details: alanine scan, flow cytometry, HEK293-T;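 note: antibody binding to each alanine-substituted CD33 mutant expressed transiently in HEK293-T, read as fluorescence minus background, mean of duplicates, relative to wild-type CD33 set as 100%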
Below, each of the binders is paired with its reported Mean % WT Binding value.
Quantity Measured: Mean % WT Binding (% WT binding)

# Binder, Reading
data = [
    ("Refmab #4 (antibody, V domains shown, The alanine scan used IgG or Fab) VH: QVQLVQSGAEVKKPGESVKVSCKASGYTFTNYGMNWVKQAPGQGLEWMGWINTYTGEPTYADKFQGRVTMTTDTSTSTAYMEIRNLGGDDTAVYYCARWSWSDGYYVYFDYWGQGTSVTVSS VL: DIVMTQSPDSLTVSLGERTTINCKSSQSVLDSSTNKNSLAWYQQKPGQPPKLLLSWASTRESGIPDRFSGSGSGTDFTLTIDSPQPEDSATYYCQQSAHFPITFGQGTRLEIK", 107),
    ("Refmab #2 (antibody, V domains shown, The alanine scan used IgG or Fab) VH: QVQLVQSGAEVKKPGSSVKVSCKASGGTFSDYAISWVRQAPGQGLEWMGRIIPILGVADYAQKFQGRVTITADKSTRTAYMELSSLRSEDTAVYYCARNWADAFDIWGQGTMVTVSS VL: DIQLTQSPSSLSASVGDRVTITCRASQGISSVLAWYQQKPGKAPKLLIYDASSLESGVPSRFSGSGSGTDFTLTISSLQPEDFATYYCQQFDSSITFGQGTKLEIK", 110),
    ("Refmab #3 (antibody, V domains shown, The alanine scan used IgG or Fab) VH: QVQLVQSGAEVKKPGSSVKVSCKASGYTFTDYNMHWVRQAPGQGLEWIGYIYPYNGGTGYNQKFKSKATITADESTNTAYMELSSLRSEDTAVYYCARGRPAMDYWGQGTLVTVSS VL: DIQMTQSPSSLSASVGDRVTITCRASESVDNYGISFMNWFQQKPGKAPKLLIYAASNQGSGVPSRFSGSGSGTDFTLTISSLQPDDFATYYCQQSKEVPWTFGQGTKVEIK", 95.8),
    ("Refmab #1 (antibody, V domains shown, The alanine scan used IgG or Fab; also called hP67.6) VH: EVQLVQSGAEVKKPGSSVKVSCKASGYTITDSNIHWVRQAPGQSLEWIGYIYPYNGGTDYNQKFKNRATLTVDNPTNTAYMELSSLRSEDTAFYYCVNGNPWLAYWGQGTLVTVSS VL: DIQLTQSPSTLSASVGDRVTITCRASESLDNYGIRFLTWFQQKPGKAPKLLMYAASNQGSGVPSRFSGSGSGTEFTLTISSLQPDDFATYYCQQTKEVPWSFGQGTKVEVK", 92.7),
]
